Where do the numbers come from? From patent US11447466B2.

Molecular target: human TLR7 (Homo sapiens, UniProt Q9NYK1)
Sequence (Q9NYK1 27-1049): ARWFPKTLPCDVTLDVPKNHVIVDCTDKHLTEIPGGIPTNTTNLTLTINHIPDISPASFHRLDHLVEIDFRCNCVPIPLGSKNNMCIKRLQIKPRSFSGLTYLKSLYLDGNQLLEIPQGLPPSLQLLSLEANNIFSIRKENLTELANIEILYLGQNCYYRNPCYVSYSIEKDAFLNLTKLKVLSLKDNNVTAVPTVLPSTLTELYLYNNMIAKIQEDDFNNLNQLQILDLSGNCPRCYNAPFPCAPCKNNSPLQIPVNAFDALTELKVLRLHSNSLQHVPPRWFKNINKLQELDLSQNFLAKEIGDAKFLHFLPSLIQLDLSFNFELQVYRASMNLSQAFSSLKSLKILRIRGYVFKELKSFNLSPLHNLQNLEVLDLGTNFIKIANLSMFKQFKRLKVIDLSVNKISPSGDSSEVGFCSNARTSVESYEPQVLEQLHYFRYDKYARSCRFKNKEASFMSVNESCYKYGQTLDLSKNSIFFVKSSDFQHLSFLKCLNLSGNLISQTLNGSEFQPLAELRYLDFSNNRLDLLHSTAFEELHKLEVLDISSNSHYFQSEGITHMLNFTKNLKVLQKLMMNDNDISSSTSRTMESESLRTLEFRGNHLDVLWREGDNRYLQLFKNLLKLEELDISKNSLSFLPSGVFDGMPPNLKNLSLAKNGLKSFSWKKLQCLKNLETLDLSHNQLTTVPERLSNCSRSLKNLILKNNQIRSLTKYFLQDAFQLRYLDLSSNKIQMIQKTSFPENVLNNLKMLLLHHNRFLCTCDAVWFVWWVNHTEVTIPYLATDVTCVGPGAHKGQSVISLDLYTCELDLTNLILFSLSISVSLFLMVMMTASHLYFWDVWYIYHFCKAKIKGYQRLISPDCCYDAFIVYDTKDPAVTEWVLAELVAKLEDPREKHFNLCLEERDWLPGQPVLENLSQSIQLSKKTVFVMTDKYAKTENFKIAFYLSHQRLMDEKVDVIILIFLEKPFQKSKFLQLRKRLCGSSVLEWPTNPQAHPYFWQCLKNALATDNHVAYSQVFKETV
Test: TLR7 inhibition reporter assay (HEK-Blue SEAP reporter, gardiquimod stimulation)
Settings: HEK-Blue cells overexpressing human TLR7, SEAP reporter, gardiquimod 7.5 μM, 22 hour incubation
pIC50: −log10 of the molar value.
Observable: pIC50

Illustrative cases are given below, each with its answer.
Molecule | pIC50
CC(C)c1c(-c2cc(-c3cncnc3)c(=O)n(C)c2)[nH]c2ccc(C3CCN(CC4CCOC4)CC3)c(F)c12 (stereo not shown) | 8.21
CCCN1CCC(c2ccc3[nH]c(-c4cc(-c5cnc(OC)nc5)c(=O)n(C)c4)c(C(C)C)c3c2)CC1 | 8.20
COc1cc(-c2[nH]c3ccc(C4CCN(CC(=O)N(C)C)CC4)cc3c2C(C)C)c(C)n(C)c1=O | 6.38
Cc1cc(-c2[nH]c3ccc(C4CCN(Cc5ccnn5C)CC4)cc3c2C(C)C)cn(C)c1=O | 8.34
CC(C)c1c(-c2cc(-c3cccc(C#N)c3)c(=O)n(C)c2)[nH]c2ccc(C3CCNCC3)cc12 | 7.86
CCn1cc(-c2[nH]c3ccc(C4CCNCC4)cc3c2C(C)C)cc(C)c1=O | 8.72
Cc1c(-c2[nH]c3ccc(C4CCN(C5CCOCC5)CC4)cc3c2C(C)C)cc(C#N)c(=O)n1C | 7.61
Cc1c(-c2[nH]c3ccc(C4CCN(CC(=O)N(C)C)CC4)cc3c2C(C)C)cn(C)c(=O)c1C | 7.92
Cc1cc(-c2[nH]c3ccc(C4CCN(C5CCOCC5)CC4)cc3c2C(C)C)cn(C)c1=O | 8.41
Cc1cc(-c2[nH]c3ccc(C4CCN(CC(C)(C)O)CC4)cc3c2C(C)C)cn(C)c1=O | 8.64

[P] Cc1cc(-c2[nH]c3ccc(C4CCN(CC(N)=O)CC4)cc3c2C(C)C)cn(C)c1=O
[Q] CCn1cc(-c2[nH]c3ccc(C4CCN(C5COC5)CC4)cc3c2C(C)C)cc(C)c1=O
Lab notebook, comparison: P versus Q , higher pIC50 goes to which? Answer = label. P

* * *

Target: human TLR8 (Homo sapiens)
Test: TLR8 inhibition reporter assay (HEK-Blue SEAP reporter, R848 stimulation)
Settings: HEK-Blue cells overexpressing human TLR8, SEAP reporter, R848 15.9 μM, 22 hour incubation
Observable: IC50 (nM)

Below, each entry is followed by its recorded IC50 result.
Smiles code | Tested system | IC50 / nM
COCc1cc(-c2[nH]c3ccc(C4CCN(CC(C)(C)O)CC4)cc3c2C(C)C)cn(C)c1=O | human TLR8 (Homo sapiens) | 13.9
CCn1cc(-c2[nH]c3ccc(C4CCN(CC(=O)N(C)C)CC4)cc3c2C(C)C)c(C)c(C)c1=O | human TLR8 (Homo sapiens) | 13.6
Cc1cc(-c2[nH]c3ccc(C4CCN(CCCO)CC4)cc3c2C(C)C)cn(C)c1=O | human TLR8 (Homo sapiens) | 4.6
CC(C)c1c(-c2cc(Cl)c(=O)n(C)c2)[nH]c2ccc(C3CCN(C4CCOCC4)CC3)cc12 | human TLR8 (Homo sapiens) | 7

[A] CC(C)c1c(-c2cc(CO)c(=O)n(C)c2)[nH]c2ccc(C3CCNCC3)cc12
[B] Cc1cc(-c2[nH]c3ccc(C4CCN(CC5(O)CCOCC5)CC4)cc3c2C(C)C)c(C)n(C)c1=O
Sorting by IC50 in descending order, would A or B appear first? Refer to your chosen item by its label in the answer. A

* * *

Molecular target: human TLR7 (Homo sapiens, UniProt Q9NYK1)
Assay: TLR7 inhibition reporter assay (HEK-Blue SEAP reporter, gardiquimod stimulation)
Details: HEK-Blue cells overexpressing human TLR7, SEAP reporter, gardiquimod 7.5 μM, 22 hour incubation
Description: TLR7/8/9 Inhibition Reporter Assays HEK-Blue™-cells (Invivogen) overexpressing human TLR7, TLR8 or TLR9 receptors were used for screening inhibitors of these receptors using an inducible SEAP (secreted embryonic alkaline phosphatase) reporter gene under the control of the IFN-β minimal promoter fused to five NF-κB and AP-1-binding sites. […]
pIC50: −log10 of the molar value.
Observable: pIC50

Molecule | pIC50
COCCN1CCC(c2ccc3[nH]c(-c4cc(-c5cnn(C)c5)c(=O)n(C)c4)c(C(C)C)c3c2)CC1 | 7.84
CCCN1CCC(c2ccc3[nH]c(-c4cc(-c5cncnc5)c(=O)n(C)c4)c(C(C)C)c3c2F)CC1 | 8.35
COCCn1cc(-c2[nH]c3ccc(C4CCN(C5CCOCC5)CC4)cc3c2C(C)C)cc(C)c1=O | 8.06
CNC(=O)CN1CCC(c2ccc3[nH]c(-c4nn(C)c(=O)c(C)c4C)c(C(C)C)c3c2)CC1 | 6.61
CCc1cc(-c2[nH]c3ccc(C4CCNCC4)cc3c2C(C)C)cn(CC)c1=O | 8.07

[a] Cc1cc(-c2[nH]c3ccc(C4CCNCC4)cc3c2C(C)C)cn(Cc2ccccc2)c1=O
[b] Cc1cc(-c2[nH]c3ccc(C4CCN(CC(=O)NCC(C)(C)O)CC4)cc3c2C(C)C)cn(C)c1=O
[c] CC(C)c1c(-c2ccc(=O)n(C)c2)[nH]c2ccc(C3CCN(C4COC4)CC3)cc12 [Example 175]
Arrange the 3 entries by pIC50 so the values rise. Hello, could you send the labels back in the order asked? Thank you. c, b, a
(c: 6.56, b: 8.01, a: 8.54)

* * *

Biological target: human TLR9 (Homo sapiens, UniProt Q9NR96)
Sequence (Q9NR96 26-1032): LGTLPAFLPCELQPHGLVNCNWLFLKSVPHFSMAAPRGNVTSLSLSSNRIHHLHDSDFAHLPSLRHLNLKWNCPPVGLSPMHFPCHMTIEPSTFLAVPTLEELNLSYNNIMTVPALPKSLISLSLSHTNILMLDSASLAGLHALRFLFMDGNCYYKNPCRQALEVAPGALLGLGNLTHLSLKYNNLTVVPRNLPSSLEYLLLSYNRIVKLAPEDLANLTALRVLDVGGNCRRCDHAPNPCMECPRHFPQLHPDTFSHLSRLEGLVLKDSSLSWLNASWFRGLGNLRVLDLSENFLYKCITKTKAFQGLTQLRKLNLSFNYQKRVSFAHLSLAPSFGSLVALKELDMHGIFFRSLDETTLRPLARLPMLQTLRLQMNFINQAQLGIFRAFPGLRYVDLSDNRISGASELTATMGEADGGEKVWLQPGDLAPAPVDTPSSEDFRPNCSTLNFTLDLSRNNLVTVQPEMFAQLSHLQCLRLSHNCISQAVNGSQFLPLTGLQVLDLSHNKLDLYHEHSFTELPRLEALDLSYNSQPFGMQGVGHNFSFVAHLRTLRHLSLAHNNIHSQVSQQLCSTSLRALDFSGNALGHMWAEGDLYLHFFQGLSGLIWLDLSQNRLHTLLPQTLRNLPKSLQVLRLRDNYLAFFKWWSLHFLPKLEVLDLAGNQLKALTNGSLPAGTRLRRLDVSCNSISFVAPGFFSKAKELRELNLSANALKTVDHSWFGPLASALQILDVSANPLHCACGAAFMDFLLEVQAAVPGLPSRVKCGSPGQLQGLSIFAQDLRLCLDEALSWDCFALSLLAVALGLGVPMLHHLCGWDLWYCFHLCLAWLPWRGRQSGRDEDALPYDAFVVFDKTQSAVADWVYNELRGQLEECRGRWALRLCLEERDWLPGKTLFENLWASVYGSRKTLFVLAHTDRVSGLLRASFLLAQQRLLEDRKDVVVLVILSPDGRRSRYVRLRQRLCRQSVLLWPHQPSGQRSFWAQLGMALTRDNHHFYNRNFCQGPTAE
Experiment: TLR9 inhibition reporter assay (HEK-Blue SEAP reporter, ODN2006 stimulation)
Settings: HEK-Blue cells overexpressing human TLR9, SEAP reporter, ODN2006 5 nM, 22 hour incubation
pIC50: −log10 of the molar value.
// reported pIC50 per item

Check out these entries, answers already filled in.
Compound | Observable | Reported result
Cc1cc(-c2[nH]c3ccc(C4CCN(CC(=O)NCC(C)(C)O)CC4)cc3c2C(C)C)cn(C)c1=O | pIC50 | ≤ 4.30
Cc1cc(-c2[nH]c3ccc(C4CCN(C5CCS(=O)(=O)C5)CC4)cc3c2C(C)C)cn(C)c1=O (stereo not drawn) | pIC50 | ≤ 4.30

# context switch: different compound, same pIC50
Form entry - test system: human TLR9 (Homo sapiens, UniProt Q9NR96); read-out: pIC50; compound: Cc1cc(-c2[nH]c3ccc(C4CCN(CC(=O)N5CCC(=O)N5)CC4)cc3c2C(C)C)cn(C)c1=O ≤ 4.30

* * *

Target: UniProt Q9NYK1
Assay: TLR7 inhibition reporter assay (HEK-Blue SEAP reporter, gardiquimod stimulation)
Settings: HEK-Blue cells overexpressing human TLR7, SEAP reporter, gardiquimod 7.5 μM, 22 hour incubation
pIC50: −log10 of the molar value.
Observable: pIC50

Field: example entries. Status: answers known.
Compound | Tested system | Reported result
CCn1cc(-c2[nH]c3ccc(C4CCN(CC(=O)N(C)C)CC4)cc3c2C(C)C)cc(C)c1=O | UniProt Q9NYK1 | 7.62
CNC(=O)CN1CCC(c2ccc3[nH]c(-c4cn(C)c(=O)c(OC)c4C)c(C(C)C)c3c2)CC1 | UniProt Q9NYK1 | 7.32
Cc1cc(-c2[nH]c3ccc(C4CCN(CC(C)C)CC4)cc3c2C(C)C)cn(CC(C)C)c1=O | UniProt Q9NYK1 | 7.41
COc1cc(-c2[nH]c3ccc(C4CCN(C5COC5)CC4)cc3c2C(C)C)cn(C)c1=O | UniProt Q9NYK1 | 7.95
Cc1c(-c2[nH]c3ccc(C4CCN(CC5CCOC5)CC4)cc3c2C(C)C)cn(C)c(=O)c1Cl (stereo not shown) [Example 254] | UniProt Q9NYK1 | 8.26

[a] CC(C)c1c(-c2cc(-c3cncnc3)c(=O)n(C)c2)[nH]c2ccc(C3CCNCC3)cc12
[b] COc1cc(-c2[nH]c3ccc(C4CCNCC4)cc3c2C(C)C)cn(C)c1=O
Please indicate which entry, a or b , has the lower recorded pIC50 value. Give the chosen item's label as your response. a

* * *

Biological target: human TLR8 (Homo sapiens, UniProt Q9NR97)
Sequence (Q9NR97 27-1041): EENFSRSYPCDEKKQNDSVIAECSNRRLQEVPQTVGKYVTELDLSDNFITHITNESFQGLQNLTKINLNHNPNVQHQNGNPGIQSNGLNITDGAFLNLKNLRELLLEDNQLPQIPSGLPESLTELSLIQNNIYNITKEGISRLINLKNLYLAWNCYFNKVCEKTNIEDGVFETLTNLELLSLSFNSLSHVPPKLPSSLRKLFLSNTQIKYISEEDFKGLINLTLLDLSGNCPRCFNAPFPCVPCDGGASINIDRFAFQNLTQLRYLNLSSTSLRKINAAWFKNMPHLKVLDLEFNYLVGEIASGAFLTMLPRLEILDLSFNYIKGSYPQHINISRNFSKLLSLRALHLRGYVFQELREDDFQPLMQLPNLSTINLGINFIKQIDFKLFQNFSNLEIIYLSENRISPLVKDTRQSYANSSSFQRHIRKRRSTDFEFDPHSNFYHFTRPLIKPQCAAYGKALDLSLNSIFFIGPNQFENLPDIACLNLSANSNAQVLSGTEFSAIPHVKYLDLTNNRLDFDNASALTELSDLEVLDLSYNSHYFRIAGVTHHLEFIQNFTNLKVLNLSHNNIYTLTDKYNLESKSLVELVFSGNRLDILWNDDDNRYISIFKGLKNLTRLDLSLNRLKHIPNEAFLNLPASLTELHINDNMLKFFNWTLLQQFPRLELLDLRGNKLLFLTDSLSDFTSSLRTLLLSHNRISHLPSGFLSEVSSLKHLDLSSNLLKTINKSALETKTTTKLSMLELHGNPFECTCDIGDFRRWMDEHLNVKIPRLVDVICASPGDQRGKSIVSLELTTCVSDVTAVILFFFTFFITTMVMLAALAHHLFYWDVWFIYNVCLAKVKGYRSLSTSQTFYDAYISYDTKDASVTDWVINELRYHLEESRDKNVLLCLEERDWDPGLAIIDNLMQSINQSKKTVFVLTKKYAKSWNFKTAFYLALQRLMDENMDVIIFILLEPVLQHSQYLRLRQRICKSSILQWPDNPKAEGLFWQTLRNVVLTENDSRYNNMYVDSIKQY
Experiment: TLR8 inhibition reporter assay (HEK-Blue SEAP reporter, R848 stimulation)
Details: HEK-Blue cells overexpressing human TLR8, SEAP reporter, R848 15.9 μM, 22 hour incubation
Observable: IC50 (nM)

Smiles code | IC50 / nM
Cc1cc(-c2[nH]c3ccc(C4CCN(C(=O)C5(N)CC5)CC4)cc3c2C(C)C)cn(C)c1=O | 53
COCCN1CCC(c2ccc3[nH]c(-c4cc(-c5ccc(C)nc5)c(=O)n(C)c4)c(C(C)C)c3c2)CC1 | 72.6

[A] Cc1cc(-c2[nH]c3ccc(C4CCN(CCCC(F)(F)F)CC4)cc3c2C(C)C)cn(Cc2ccccc2)c1=O
[B] Cc1cc(-c2[nH]c3ccc(C4CCN(C(C)(C)C(=O)O)CC4)cc3c2C(C)C)cn(C)c1=O
Please indicate which entry, A or B , has the lower recorded IC50 value. Let me know the label of the one you choose. A
